Data provenance is patent US11021493B2.

Exercise: state measured IC50 for each of the compounds provided.
- tested target: BACE1 (Homo sapiens (Human), UniProt P56817)
- Sequence (P56817 46-501, species assumed): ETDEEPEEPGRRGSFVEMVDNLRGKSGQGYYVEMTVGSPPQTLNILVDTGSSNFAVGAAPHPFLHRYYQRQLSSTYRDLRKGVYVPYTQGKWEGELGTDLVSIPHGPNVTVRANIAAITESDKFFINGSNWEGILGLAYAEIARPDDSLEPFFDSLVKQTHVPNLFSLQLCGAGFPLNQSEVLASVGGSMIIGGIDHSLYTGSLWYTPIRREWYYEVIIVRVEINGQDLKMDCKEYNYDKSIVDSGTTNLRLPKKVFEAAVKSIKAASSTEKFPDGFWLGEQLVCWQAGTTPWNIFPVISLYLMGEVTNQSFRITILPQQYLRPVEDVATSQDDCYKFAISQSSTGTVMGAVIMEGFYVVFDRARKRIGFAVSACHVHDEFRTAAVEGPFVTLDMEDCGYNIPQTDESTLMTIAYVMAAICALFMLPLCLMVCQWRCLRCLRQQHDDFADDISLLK
- experiment notes: In vitro BACE1 cell-based assay (Aβ40 in conditioned medium of cells stably expressing APP, HTRF)
- test conditions: Aβ40 in conditioned media after 24 h incubation
The answer is to be given in nM; state only the numeric part.

**Q:** Would you mind telling me what IC50 value was observed for `CN1C(N)=N[C@](C)(c2cc(/C=C(\F)c3ccc(F)cn3)cc(F)c2F)CS1(=O)=O` ?
**A:** 138

**Q:** Fill in: IC50 of `Cc1cc(COc2cnc(/C(F)=C/c3ccc(F)c([C@@]4(C)N=C(N)N(C)S(=O)(=O)C45CC5)c3)cn2)no1` is ___
**A:** 168

**Q:** Bench note: what IC50 did `CN1C(N)=N[C@](C)(c2cc(/C=C(\F)c3ccc(C#CC4CC4)cn3)ccc2F)CS1(=O)=O` show?
**A:** 110

**Q:** Returns the measured IC50 for the input compound. Input: COC(C)COc1cnc(/C(F)=C/c2ccc(F)c([C@@]3(C)N=C(N)[C@@]4(CF)CC[C@@H]3S4(=O)=O)c2)cn1 (stereo partly drawn)
**A:** 218

**Q:** Requested field: IC50. Item: `CN1C(N)=N[C@](C)(c2cc(/C=C(\F)c3ccc4c(c3)OCCO4)ccc2F)CS1(=O)=O`
**A:** 1080

**Q:** Would you kindly share the measured IC50 for `C#CCOc1cnc(/C(F)=C/c2cc(F)c(F)c([C@]3(C)CS(=O)(=O)C(C)(C)C(N)=N3)c2)cn1` ?
**A:** 9
